assayed_target: PTPN1 (PTP1B) (Homo sapiens, UniProt P18031)
Construct: catalytic domain (fluorogenic PTP1B catalytic domain assay kit, BPS Bioscience 79764; purified catalytic domain 1-301 for CETSA)
Sequence (P18031 1-301): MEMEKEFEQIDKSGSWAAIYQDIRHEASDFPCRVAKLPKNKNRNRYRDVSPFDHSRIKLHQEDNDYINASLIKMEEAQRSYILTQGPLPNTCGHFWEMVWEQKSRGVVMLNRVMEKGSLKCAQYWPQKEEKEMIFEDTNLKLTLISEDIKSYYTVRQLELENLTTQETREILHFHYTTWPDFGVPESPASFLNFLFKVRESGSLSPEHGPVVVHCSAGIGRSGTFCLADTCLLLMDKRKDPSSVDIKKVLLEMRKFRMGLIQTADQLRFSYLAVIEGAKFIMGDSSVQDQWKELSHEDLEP
experiment_description: fluorogenic phosphatase assay with Lineweaver-Burk kinetics; also CETSA on purified catalytic domain, CD4 T cell lysates, and TPP in live PBMCs and K562 cells
pIC50: −log10 of the molar value.

>  <compound>
O=c1c2ccccc2nnn1O [HODHBt, 3-Hydroxy-1,2,3-benzotriazin-4(3H)-one]

>  <pIC50>
3.22

$$$$
